Please respond with reported self-splicing fitness (ln) for every item in the list.
Assay: self-splicing fitness, log relative to wild type (ln ratio); higher = more splicing; Tetrahymena group I intron in knt gene, E. coli kanamycin selection, DiMSum; sequences stand for … in CUCUCU…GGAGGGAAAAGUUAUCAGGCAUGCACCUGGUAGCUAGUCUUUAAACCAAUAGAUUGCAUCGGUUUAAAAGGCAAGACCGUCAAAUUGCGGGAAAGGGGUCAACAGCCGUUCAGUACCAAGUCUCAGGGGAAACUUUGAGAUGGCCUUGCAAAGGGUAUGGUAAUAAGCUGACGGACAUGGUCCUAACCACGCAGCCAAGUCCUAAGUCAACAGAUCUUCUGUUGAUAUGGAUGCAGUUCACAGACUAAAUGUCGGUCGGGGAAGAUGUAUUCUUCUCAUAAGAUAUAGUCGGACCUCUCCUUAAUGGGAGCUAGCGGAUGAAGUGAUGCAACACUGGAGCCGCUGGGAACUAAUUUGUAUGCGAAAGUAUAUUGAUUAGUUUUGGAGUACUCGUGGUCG;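 further: selection with 25 µg/mL kanamycin versus none on LB agar overnight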
Conditions: 30 °C
Numbers only.

Below is a list of sequences. For each, state its recorded self-splicing fitness (ln).
1. CGGCAGCAAUAUUACGUAUG
2. GCACAGCAAUAUUACGGUAC
3. GGCAAGCAAUAUUACGUCUA
4. GGUGAGCAAUAUUACGCUUU
5. UUUUAGCAAUAUUACGUGUG
6. AGCCAGCAAUAUUACGACAU
7. CUGCAGCAAUAUUACGAACG

[-1.55, -1.17, -0.593, -2.63, -2.29, -1.51, 0.237]

* * *

Experiment: self-splicing fitness, log relative to wild type (ln ratio); higher = more splicing; Tetrahymena group I intron in knt gene, E. coli kanamycin selection, DiMSum; sequences stand for … in CUCUCU…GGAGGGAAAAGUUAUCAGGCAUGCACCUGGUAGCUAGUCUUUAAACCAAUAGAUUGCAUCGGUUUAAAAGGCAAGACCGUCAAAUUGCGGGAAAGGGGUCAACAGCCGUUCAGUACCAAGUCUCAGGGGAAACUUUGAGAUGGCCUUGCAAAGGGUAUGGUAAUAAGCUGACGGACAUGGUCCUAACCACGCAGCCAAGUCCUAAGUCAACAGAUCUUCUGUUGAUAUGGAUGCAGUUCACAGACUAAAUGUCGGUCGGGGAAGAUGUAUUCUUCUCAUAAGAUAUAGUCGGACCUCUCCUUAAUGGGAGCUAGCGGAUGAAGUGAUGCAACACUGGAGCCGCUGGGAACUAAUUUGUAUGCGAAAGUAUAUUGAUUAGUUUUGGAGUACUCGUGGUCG
Details: 37 °C
Please respond with reported self-splicing fitness (ln) for every item in the list.
Numbers only.

Illustrative cases are given below, each with its answer.
ACUAAGCAAUAUUACGACCU
0.342
AAGCAGCAAUAUUACGCUCA
-0.0809
ACACAGCAAUAUUACGUGGG
-1.88
CGUUAGCAAUAUUACGGAGU
-3.23
CCGUAGCAAUAUUACGGCGG
-2.97
GGGUAGCAAUAUUACGCAGG
-2.34
CCGGAGCAAUAUUACGGAAG
-2.21
CAUGAGCAAUAUUACGUGAU
-2.68

Below is a list of sequences. For each, state its recorded self-splicing fitness (ln).
1. AUUAAGCAAUAUUACGGGCG
2. AAGGAGCAAUAUUACGGGCC
3. UGCCAGCAAUAUUACGGAAU
4. ACGAAGCAAUAUUACGUAGA
5. GCGCAGCAAUAUUACGAAAC
6. UCGCAGCAAUAUUACGCCGA
7. UGUGAGCAAUAUUACGUCGG
8. GACAAGCAAUAUUACGUGAA

-0.228
-2.27
-1.95
-2.89
-0.354
-2.26
-1.35
-1.11

Below is a list of sequences. For each, state its recorded self-splicing fitness (ln).
1. UAUCAGCAAUAUUACGUGUA
2. CUGCAGCAAUAUUACGCAUC
3. CUGAAGCAAUAUUACGAACU
4. GCGGAGCAAUAUUACGUUGG

1. 0.204
2. -2.46
3. -2.37
4. -3.01
